Numbers sourced from patent US11945822B2.

- system-tested: CDK7/Cyclin H/MNAT1 (Homo sapiens, UniProt P50613)
- Construct: purchased Invitrogen PR6749B
- Sequence (P50613 whole entry): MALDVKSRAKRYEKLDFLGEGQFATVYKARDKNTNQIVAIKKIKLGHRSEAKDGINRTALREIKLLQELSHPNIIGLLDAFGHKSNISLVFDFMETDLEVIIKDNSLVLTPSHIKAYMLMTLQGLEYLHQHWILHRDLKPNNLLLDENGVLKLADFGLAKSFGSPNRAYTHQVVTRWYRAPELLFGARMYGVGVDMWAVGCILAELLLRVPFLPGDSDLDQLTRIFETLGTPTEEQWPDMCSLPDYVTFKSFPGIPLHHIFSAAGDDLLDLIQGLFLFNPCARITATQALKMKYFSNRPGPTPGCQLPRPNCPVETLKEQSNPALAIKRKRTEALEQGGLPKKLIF
- Sequence (P51946 whole entry partner): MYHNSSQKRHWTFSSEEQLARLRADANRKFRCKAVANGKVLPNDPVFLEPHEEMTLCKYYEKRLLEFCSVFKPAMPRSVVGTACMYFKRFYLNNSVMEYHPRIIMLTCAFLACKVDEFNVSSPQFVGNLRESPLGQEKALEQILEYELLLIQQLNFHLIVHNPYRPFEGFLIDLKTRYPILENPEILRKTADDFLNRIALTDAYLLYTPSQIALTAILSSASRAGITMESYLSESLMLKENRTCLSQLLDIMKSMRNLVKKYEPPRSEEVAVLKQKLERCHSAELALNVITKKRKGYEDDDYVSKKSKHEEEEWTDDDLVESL
- Sequence (P51948 whole entry partner): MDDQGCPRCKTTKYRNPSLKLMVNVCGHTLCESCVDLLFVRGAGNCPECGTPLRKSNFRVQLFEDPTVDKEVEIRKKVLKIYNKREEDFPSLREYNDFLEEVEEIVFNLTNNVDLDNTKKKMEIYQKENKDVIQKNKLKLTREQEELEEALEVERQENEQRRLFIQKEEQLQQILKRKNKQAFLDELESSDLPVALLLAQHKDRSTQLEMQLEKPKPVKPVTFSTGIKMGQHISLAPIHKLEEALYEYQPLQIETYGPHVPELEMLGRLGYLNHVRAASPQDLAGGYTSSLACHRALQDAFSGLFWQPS
- protocol-details: Enzymatic assay for CDK7 (FRET based LANCE Ultra kinase assay)
- Assay type: biochemical
- test-settings: CDK7 over CDK2
property-name: CDK2/CDK7: Selectivity of CDK7 inhibition over CDK2 inhibition

record-smiles	experimental-result
CC(C)c1cnn2c(NCc3ccccc3-n3cccn3)nc([C@H]3CC[C@H](N)CC3)nc12	C (C=less than 20 fold)
CC(C)c1cnn2c(NCc3ccc(Cl)c(-n4cccn4)c3)nc(N3CCC(N)CC3)nc12	C (C=less than 20 fold)

* * *

- system-tested: CDK12 R722C/CycK (Homo sapiens, UniProt Q9NYV4, R722C)
- Construct: either as full-length or enzymatically active fragments
- Sequence (Q9NYV4 whole entry R722C, the tested form may be a part): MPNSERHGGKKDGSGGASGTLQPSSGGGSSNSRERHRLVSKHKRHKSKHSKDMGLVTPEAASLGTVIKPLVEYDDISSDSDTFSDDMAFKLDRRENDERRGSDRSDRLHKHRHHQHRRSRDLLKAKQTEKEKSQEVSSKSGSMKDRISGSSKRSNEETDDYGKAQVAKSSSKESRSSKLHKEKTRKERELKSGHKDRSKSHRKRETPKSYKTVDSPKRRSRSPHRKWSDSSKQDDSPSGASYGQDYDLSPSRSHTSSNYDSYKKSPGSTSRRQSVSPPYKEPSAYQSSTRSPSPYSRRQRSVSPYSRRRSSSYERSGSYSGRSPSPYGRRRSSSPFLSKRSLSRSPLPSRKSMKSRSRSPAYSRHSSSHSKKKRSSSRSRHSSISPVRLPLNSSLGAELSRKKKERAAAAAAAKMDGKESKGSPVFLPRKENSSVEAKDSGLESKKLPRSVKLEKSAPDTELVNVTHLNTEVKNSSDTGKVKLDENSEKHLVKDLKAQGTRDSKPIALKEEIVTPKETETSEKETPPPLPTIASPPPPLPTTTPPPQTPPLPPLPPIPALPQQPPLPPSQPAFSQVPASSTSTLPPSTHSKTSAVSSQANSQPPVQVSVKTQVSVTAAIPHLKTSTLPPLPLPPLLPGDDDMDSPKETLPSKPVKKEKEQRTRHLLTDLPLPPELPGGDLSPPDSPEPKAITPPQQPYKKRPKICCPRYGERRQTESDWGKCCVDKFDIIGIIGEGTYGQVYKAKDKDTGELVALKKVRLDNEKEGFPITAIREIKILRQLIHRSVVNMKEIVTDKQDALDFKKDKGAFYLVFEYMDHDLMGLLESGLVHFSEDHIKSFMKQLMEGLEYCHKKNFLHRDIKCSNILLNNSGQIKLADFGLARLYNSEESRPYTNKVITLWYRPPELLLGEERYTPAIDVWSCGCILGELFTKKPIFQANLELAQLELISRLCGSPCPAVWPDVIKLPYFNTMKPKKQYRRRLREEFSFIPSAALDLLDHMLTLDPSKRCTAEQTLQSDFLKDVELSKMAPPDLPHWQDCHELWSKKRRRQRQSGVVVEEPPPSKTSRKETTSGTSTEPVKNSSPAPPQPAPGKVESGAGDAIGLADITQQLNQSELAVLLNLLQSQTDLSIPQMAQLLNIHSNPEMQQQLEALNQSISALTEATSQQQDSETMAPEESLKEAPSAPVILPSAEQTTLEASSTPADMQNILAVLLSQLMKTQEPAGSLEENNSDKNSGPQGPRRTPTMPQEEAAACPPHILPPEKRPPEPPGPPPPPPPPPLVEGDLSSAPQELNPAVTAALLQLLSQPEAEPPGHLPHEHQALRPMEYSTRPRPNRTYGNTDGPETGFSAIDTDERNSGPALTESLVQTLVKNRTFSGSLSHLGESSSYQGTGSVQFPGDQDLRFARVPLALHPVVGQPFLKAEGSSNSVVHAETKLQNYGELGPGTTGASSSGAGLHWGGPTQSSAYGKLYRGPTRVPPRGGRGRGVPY
- Sequence (O75909 whole entry partner, the tested form may be a part): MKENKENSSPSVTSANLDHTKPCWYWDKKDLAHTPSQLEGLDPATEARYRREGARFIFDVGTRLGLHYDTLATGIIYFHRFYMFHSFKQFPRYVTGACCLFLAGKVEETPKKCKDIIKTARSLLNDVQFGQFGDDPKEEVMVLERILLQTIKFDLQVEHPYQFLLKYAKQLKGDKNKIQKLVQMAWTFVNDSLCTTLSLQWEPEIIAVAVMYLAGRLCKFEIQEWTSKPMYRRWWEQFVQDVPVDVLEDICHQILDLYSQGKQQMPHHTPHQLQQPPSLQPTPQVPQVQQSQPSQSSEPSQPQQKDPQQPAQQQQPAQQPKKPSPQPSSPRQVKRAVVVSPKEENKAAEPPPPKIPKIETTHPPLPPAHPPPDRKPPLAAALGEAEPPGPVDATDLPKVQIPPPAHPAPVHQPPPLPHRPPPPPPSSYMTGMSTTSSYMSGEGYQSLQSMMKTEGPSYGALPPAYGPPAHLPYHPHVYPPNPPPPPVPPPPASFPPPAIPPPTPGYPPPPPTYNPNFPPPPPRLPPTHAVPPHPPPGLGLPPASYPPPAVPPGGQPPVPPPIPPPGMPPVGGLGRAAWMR
- protocol-details: In vitro IC50 profile for CDKs family kinase (33PanQinase radiometric assay)
- test-settings: CDK7 selectivity profile in CDKs family
- Experimental: In Vitro IC50 Profile for CDK7 Inhibitor Among 28 CDKs Family Kinases. The IC50 profile of compounds were determined using 28 CDKs family protein kinases through ProQinase GmbH (Freiburg, Germany). […] Kinases from external vendors, Carna Biosciences Inc.; Invitrogen Corp.; and Millipore Corp., were expressed, purified and quality-controlled by virtue of the vendors readings. […] Incorporation of ^33Pi was determined with a microplate scintillation counter (Microbeta, Wallac). […]
pIC50: −log10 of the molar value.

compound	system-tested	pIC50
CC(C)c1cnn2c(NCc3c(Cl)cccc3-n3ccc(C(C)(C)O)n3)nc(N3CCC(N)CC3)nc12 [Compound 210]	CDK12 R722C/CycK (Homo sapiens, UniProt Q9NYV4, R722C)	< 5.00

* * *

- system-tested: CDK2/Cyclin A (Homo sapiens, UniProt P24941)
- Construct: purchased Invitrogen PV6290
- protocol-details: Enzymatic assay for CDK2 (FRET based LANCE Ultra kinase assay)
- Format: biochemical
- test-settings: read-out: CDK2 enzymatic activity (IC50 range)
IC50 listing for selected compounds.

compound	IC50
CCC(O)c1cnn2c(NCc3ccccc3-n3cccn3)nc(N3CCC(N)CC3)nc12 (racemic) [Compound 52]	0.1 to 1 µM
CC(C)c1cnn2c(NCc3ccccc3-c3cc4ccccc4[nH]3)nc(N3CCOC(CN)C3)nc12 (racemic) [Compound 130]	0.1 to 1 µM
CC(C)c1cnn2c(NCc3ccccc3-n3cc4cc(NS(C)(=O)=O)ccc4n3)nc(N3CCC(N)CC3)nc12 [Compound 158]	0.1 to 1 µM
CC(C)c1cnn2c(NCc3cccc4ncn(C)c34)nc(N3CCC(N)CC3)nc12 [Compound 16]	0.1 to 1 µM
CC(C)c1cnn2c(NCc3c(Cl)cccc3-n3ccc(C(=O)NC4CCOCC4)n3)nc(N3CCC(N)CC3)nc12 [Compound 201]	> 1 µM
CC(C)c1cnn2c(NCc3ccccc3-c3cc4c(F)cccc4[nH]3)nc(N3CCC(N)CC3)nc12 [Compound 112]	0.1 to 1 µM
Cc1cccc(-n2cccn2)c1CNc1nc(N2CCC(N)CC2)nc2c(C(C)C)cnn12 [Compound 43]	> 1 µM

* * *

- Tested on: OVCAR-3
- protocol-details: Cellular OVCAR-3 viability assay (CellTiter-Glo, 72 hours)
- Type: cell-based
- test-settings: Homo sapiens

compound	IC50
CC(C)c1cnn2c(NCc3ccccc3-c3ccc4ccccc4n3)nc(N[C@H]3CC[C@H](O)CC3)nc12	≤ 1000 nM
CC(C)c1cnn2c(NCc3c(Cl)cccc3-n3ccc(C(C)(C)O)n3)nc(N3CCC(N)CC3)nc12	≤ 1000 nM
CC(C)c1cnn2c(NCc3ccccc3-n3cccn3)nc(-c3cccc(OC4CCNC4)c3)nc12 (racemic)	1000 to 10000 nM
CC(C)c1cnn2c(NCc3ccccc3-c3ccc4ccccc4n3)nc(NCC[C@@H](O)CN)nc12	1000 to 10000 nM

* * *

pIC50 listing for selected compounds.
- system-tested: CDK5/p25 (Homo sapiens)
- Construct: purchased Invitrogen PR8543B
- Sequence (Q00535 whole entry): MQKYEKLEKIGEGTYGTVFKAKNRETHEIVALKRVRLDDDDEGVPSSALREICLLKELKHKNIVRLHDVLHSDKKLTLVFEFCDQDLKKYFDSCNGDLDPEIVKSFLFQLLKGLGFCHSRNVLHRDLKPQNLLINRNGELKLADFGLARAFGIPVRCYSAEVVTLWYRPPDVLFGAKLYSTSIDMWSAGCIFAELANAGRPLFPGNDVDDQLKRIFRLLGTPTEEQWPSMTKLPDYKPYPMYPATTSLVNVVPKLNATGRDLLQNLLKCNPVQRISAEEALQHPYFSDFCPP
- Sequence (Q15078 99-307 partner limits assumed): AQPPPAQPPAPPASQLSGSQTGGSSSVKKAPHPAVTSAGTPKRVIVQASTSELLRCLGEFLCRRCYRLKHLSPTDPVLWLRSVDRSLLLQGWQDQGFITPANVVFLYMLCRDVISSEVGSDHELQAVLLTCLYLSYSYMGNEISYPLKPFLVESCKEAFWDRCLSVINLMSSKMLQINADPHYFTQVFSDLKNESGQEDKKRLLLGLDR
- protocol-details: Enzymatic assay for CDK5 (FRET based LANCE Ultra kinase assay)
- Format: biochemical
- test-settings: read-out: CDK5 enzymatic activity (IC50 range)
pIC50: −log10 of the molar value.

compound	pIC50
CC(C)c1cnn2c(NCc3ccccc3-n3cc4ccc(C(F)(F)F)cc4n3)nc(N3CCC(N)CC3)nc12	6.00 to 7.00
CC(C)c1cnn2c(NCc3ccccc3-n3cc4cc(C(N)=O)ccc4n3)nc(N3CCC(N)CC3)nc12	6.00 to 7.00
Cc1ccc(-c2cc3ccccc3[nH]2)c(CNc2nc(N3CCC(N)CC3)nc3c(C(C)C)cnn23)c1	< 6.00
Cc1ccc(CNc2nc(N3CCC(N)CC3)nc3c(C(C)C)cnn23)cc1-n1cccn1	6.00 to 7.00
CC(C)c1cnn2c(NCc3ccccc3-n3cc4cc(O)ccc4n3)nc(N3CCC(N)CC3)nc12	6.00 to 7.00
CC(C)c1cnn2c(NCc3ccccc3-n3cc4cccc(NC(=O)CCCN(C)C)c4n3)nc(N3CCC(N)CC3)nc12	6.00 to 7.00
CC(C)c1cnn2c(NCc3c(Cl)cccc3-c3cccc(C(C)(C)O)n3)nc(N3CCC(N)CC3)nc12	< 6.00
CC(C)c1cnn2c(NCc3ccccc3-n3cccn3)nc(C(=O)NC3CCNC3)nc12 (racemic)	< 6.00
CC(C)c1cnn2c(NCc3cccc4cnn(C)c34)nc(N3CCC(N)CC3)nc12	> 7.00
CC(C)c1cnn2c(NCc3ccccc3-c3ccc4ccccc4n3)nc(OCC3CCNCC3)nc12	< 6.00
CC(C)c1cnn2c(NCc3ccccc3-n3ccc(C(C)(C)O)n3)nc(NC[C@H]3CCNC[C@@H]3O)nc12	< 6.00
CC(C)c1cnn2c(NCc3c(Cl)cccc3-n3ccc(C(C)(C)O)n3)nc(N3CCC(N)CC3)nc12	6.00 to 7.00
CC(C)c1cnn2c(NCc3ccccc3-c3ccc4ccccc4n3)nc(NCC3CCNCC3)nc12	< 6.00
CC(C)c1cnn2c(NCc3ccccc3-c3ccc4ccccc4[n+]3[O-])nc(N3CCC(N)CC3)nc12	< 6.00
CC(C)c1cnn2c(NCc3c(Cl)cccc3N3CCOCC3)nc(N3CCC(N)CC3)nc12	6.00 to 7.00
CC(C)c1cnn2c(NCc3ccccc3-c3ccc4ccccc4n3)nc(NCC3(O)CCNCC3)nc12	< 6.00
CNC(=O)c1cc2cn(-c3ccccc3CNc3nc(N4CCC(N)CC4)nc4c(C(C)C)cnn34)nc2cc1F	6.00 to 7.00
CC(C)c1cnn2c(NCc3ccccc3-n3cc4cc(C#N)ccc4n3)nc(N3CCC(N)CC3)nc12	6.00 to 7.00
CC(C)c1cnn2c(NCc3c(Cl)cccc3-c3cc4ccccc4[nH]3)nc(N3CCC(N)CC3)nc12	< 6.00
Cc1cccc(-n2cccn2)c1CNc1nc(N2CCC(N)CC2)nc2c(C(C)C)cnn12	< 6.00
CC(C)c1cnn2c(NCc3ccccc3-c3cc4ccccc4[nH]3)nc(N3CCC[C@@H](N)C3)nc12	< 6.00
CC(C)c1cnn2c(NCc3ccccc3-n3ccc(CO)n3)nc(N3CCC(N)CC3)nc12	6.00 to 7.00
CC(C)c1cnn2c(NCc3c(Cl)cccc3C#N)nc(N3CCC(N)CC3)nc12	6.00 to 7.00
CC(C)c1cnn2c(NCc3ccccc3-c3ccc4[nH]c(NC(=O)C5CC5)nc4c3)nc(N3CCC(N)CC3)nc12	> 7.00
CC(C)c1cnn2c(NCc3ccccc3-c3ccc4ccccc4n3)cc(NCC3(O)CCNCC3)nc12	6.00 to 7.00
CNC(=O)c1cc2cn(-c3ccccc3CNc3nc(N4CCC(N)CC4)nc4c(C(C)C)cnn34)nc2cc1C	6.00 to 7.00
CC(C)c1cnn2c(NCc3c(Cl)cccc3-c3ccn(C4CCNCC4)n3)nc(N3CCC(N)CC3)nc12	6.00 to 7.00
CC(C)c1cnn2c(NCc3ccccc3-n3cc4cc(C(=O)NC5CC5)ccc4n3)nc(N3CCC(N)CC3)nc12	6.00 to 7.00
CC(C)c1cnn2c(NCc3c(Cl)cccc3-n3ccc(N4CCOCC4)n3)nc(N3CCC(N)CC3)nc12	< 6.00
CC(C)c1cnn2c(NCc3c(Cl)cccc3-n3cc4c(n3)CCNC4=O)nc(N3CCC(N)CC3)nc12	6.00 to 7.00

* * *

pIC50 listing for selected compounds.
- system-tested: CDK2/Cyclin A (Homo sapiens)
- Construct: purchased Invitrogen PV6290
- protocol-details: Enzymatic assay for CDK2 (FRET based LANCE Ultra kinase assay)
- Format: biochemical
- test-settings: read-out: CDK2 enzymatic activity (IC50 range)
pIC50: −log10 of the molar value.

compound	pIC50
CCC(=O)N1CCc2nn(-c3cccc(Cl)c3CNc3cc(O[C@@H]4CCCNC4)nc4c(C(C)C)cnn34)cc2C1	< 6.00
CC(C)c1cnn2c(NCc3ccccc3-c3ccc4ccccc4n3)nc(N3CCC(N)CC3)nc12	< 6.00
CC(C)c1cnn2c(NCc3ccccc3-n3cccn3)nc(NC3CCNCC3)nc12	6.00 to 7.00
Cc1ccc(CNc2nc(N3CCC(N)CC3)nc3c(C(C)C)cnn23)cc1-n1cccn1	< 6.00
CC(C)c1cnn2c(NCc3c(Cl)cccc3-n3ccc(C(=O)NC4COC4)n3)nc(N3CCC(N)CC3)nc12	< 6.00
CC(C)c1cnn2c(NCc3ccccc3-n3cc4cc(F)ccc4n3)nc(N3CCC(N)CC3)nc12	6.00 to 7.00
CC(C)c1cnn2c(NCc3ccccc3-c3cn4ccc(F)cc4n3)nc(N3CCC(N)CC3)nc12	6.00 to 7.00
CC(C)c1cnn2c(NCc3ccccc3-c3ccc4ccccc4n3)nc(OCC3CCNCC3O)nc12 (stereo not drawn)	< 6.00
CC(C)c1cnn2c(NC(C)c3ccccc3-n3ccc(CO)n3)nc(N3CCC(N)CC3)nc12 (racemic)	< 6.00
NC1CCN(c2nc(NCc3ccccc3-n3cccn3)n3ncc(I)c3n2)CC1	6.00 to 7.00
CC(C)c1cnn2c(NCc3c(Cl)cccc3-n3ccc(C(C)(C)O)n3)nc(N3CCC(C)(N)CC3)nc12	< 6.00
CC(=O)c1ccc2nn(-c3ccccc3CNc3nc(N4CCC(N)CC4)nc4c(C(C)C)cnn34)cc2c1	6.00 to 7.00
CNC(=O)c1cccc(-c2cnn(-c3ccccc3CNc3nc(N4CCC(N)CC4)nc4c(C(C)C)cnn34)c2)c1	6.00 to 7.00
CC(C)c1cnn2c(NCc3c(Cl)cccc3-c3cc4ccccc4[nH]3)nc(N3CCC(N)CC3)nc12	< 6.00
CC(C)c1cnn2c(NCc3ccccc3-c3ccc4ccccc4n3)nc(OCC3CCNCC3)nc12	< 6.00
